Parameter SPOT intensity: see the listing below.
# assayed_system: T1, Bbc1, P47068
# T1 sequence (P47068 1-78, looked up): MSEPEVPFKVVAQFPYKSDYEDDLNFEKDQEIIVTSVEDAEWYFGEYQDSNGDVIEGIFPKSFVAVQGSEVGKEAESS
# run_description: SPOT array
# cond: median of control spots 796

Query: Dear colleague, I am looking for the recorded SPOT intensity of the following binder: `VPPPMQPPPIESSNL`
Reply: 0

More entries:
Query: Dear colleague, I am looking for the recorded SPOT intensity of the following binder: `FHLNPKRSAVLYDRP`
Reply: 10

Query: Dear colleague, I am looking for the recorded SPOT intensity of the following binder: `QHQQRQPKRPKRYSL`
Reply: 211

Query: Dear colleague, I am looking for the recorded SPOT intensity of the following binder: `RPPRPPPKPLHLRTE`
Reply: 15

Query: Dear colleague, I am looking for the recorded SPOT intensity of the following binder: `NHSRSLFSLPGNQQS`
Reply: 35

Query: Dear colleague, I am looking for the recorded SPOT intensity of the following binder: `SPLGAPPPPPHKDHL`
Reply: 0

Query: Dear colleague, I am looking for the recorded SPOT intensity of the following binder: `APKREAPKPPANTSP`
Reply: 56
